Where do these numbers come from? They come from patent US20120004257A1.

# Test system: dopamine (DA) reuptake in synaptosomes
# measurement-protocol: DA reuptake inhibition in synaptosomes
# Type: biochemical
# run-conditions: 3H-DA, read-out: DA-uptake IC50
Structures can show the parent of a compound that is named as a salt.
result-type: pIC50
pIC50 is defined as minus the log10 of a concentration measured in mol/L.

molecule CCc1cc2ccc(O[C@@H]3C[C@H]4CC[C@@H](C3)N4)cc2oc1=O [Compound 1.1, hydrochloride] , pIC50 observed: 6.30

====

# Tested on: serotonine (5-HT) reuptake in synaptosomes
# measurement-protocol: 5-HT reuptake inhibition in synaptosomes
# Type: biochemical
# run-conditions: 3H-5-HT, read-out: 5-HT-uptake IC50
Counter-ions that a name gives are not always drawn.
result-type: IC50 (nM)
Reply numerically in nM, unit not repeated.

compound CCc1cc2ccc(O[C@@H]3C[C@H]4CC[C@@H](C3)N4)cc2oc1=O [Compound 1.1, hydrochloride] , IC50 observed: 7.8
